The compounds listed here are annotated with their GI50.
# Test system: A498
# assayNotes: NCI tumour cell line growth inhibition, 48 h
Activity calls are given as the source filed them. Cut-off read from the data, not from the text of the source: active = GI50 up to about 1.1 µM and inactive = higher.

{"compound": "O=S1(=O)c2ccccc2N(O)C2=NCCN21", "GI50": "28.6 µM (inactive)"}
{"compound": "COc1ccc(/N=N/C(=N/NC(=O)c2ccccc2)c2ccc(N(CCC#N)CCC#N)cc2C)cc1", "GI50": "25.6 µM (inactive)"}
{"compound": "[O-][S+]1c2ccccc2N=C(c2ccc3ccccc3c2)CC1c1ccccc1F (stereo not given)", "GI50": "22.3 µM (inactive)"}

Query: Data request, read-out GI50, for NC(=S)N/N=C1\C(=O)N(c2cccc([N+](=O)[O-])c2)C(=O)C1C(=O)Nc1cccc([N+](=O)[O-])c1 (stereo not given)
Reply: > 100 µM (inactive)

Query: COc1ccc2c(c1)c1c(n2CCN2CCOCC2)-c2cccc(OC)c2CC1 , same question.
Reply: 26.6 µM (inactive)

----------
# System: RPMI-8226
# assayNotes: NCI tumour cell line growth inhibition, 48 h
Activity calls are given as the source filed them. Rule as the data show it: active = GI50 up to about 1.1 µM and inactive = higher.
readoutKind: GI50

// below: answered compounds
{"compound": "Cn1c2ccccc2c(=O)c2cccc(C(=O)NCC(=O)O)c21", "GI50": "> 100 µM (inactive)"}
{"compound": "O=C(N/N=C(/CCN1CCCC1)CC(c1ccccc1)c1c(O)c2ccccc2oc1=O)c1ccncc1 (configuration not stated)", "GI50": "45.1 µM (inactive)"}
{"compound": "COc1ccc(N2C(=O)/C(=C/c3ccc(N(CCC#N)CCC#N)cc3C)N=C2/C=C\\c2ccccc2)cc1", "GI50": "41.1 µM (inactive)"}
{"compound": "CC(=O)OCC1OC(OC2C(CSC3OC(COC(C)=O)C(OC(C)=O)C(OC(C)=O)C3OC(C)=O)OC(OC(C)=O)C(OC(C)=O)C2OC(C)=O)C(OC(C)=O)C(OC(C)=O)C1OC(C)=O (configuration not stated)", "GI50": "> 100 µM (inactive)"}
{"compound": "COc1ccc(C(=O)c2sc(N(C)C)nc2-c2ccccc2)cc1", "GI50": "33 µM (inactive)"}

Query: What GI50 appears in the records for this compound with RPMI-8226? O=C1O[C@H]2[C@H](O)[C@@H](OC(=O)c3cc(O)c(O)c4c3[C@@H]3C1=CC(=O)C(O)(O)C3(O)O4)[C@H](OC(=O)c1cc(O)c(O)c(O)c1)O[C@@H]2CO (some centres not stated) [FUROSIN]
Reply: > 100 µM (inactive)

Query: CC(C)=CCc1c2c(c3occ(-c4ccc(O)cc4)c(=O)c3c1O)CC(C(C)(C)O)O2 (configuration not stated) [SENEGALENSIN] ?
Reply: 9.77 µM (inactive)

----------
Catalogue of GI50 values
# Test system: A498
# assayNotes: NCI tumour cell line growth inhibition, 48 h
The source made the active and inactive calls. Cut-off read from the data, not from the text of the source: active = GI50 up to about 1.1 µM and inactive = higher.

Worked set:
{"compound": "CCn1c(CCCc2nc3c(=O)n(C)c(=O)n(C)c3[nH]2)nc2c1c(=O)n(C)c(=O)n2C", "tgt": "A498", "val": "> 100 µM (inactive)"}
{"compound": "CCCCCCCCCCCCCCCCOP(=O)([O-])OCC[N+](C)(C)C [MILTEFOSINE]", "tgt": "A498", "val": "12.9 µM (inactive)"}
{"compound": "CSCC[C@H](NC(=O)[C@H](CC(C)C)NC(=O)[C@@H](Cc1ccccc1)NC(=O)CNC(=O)[C@@H](NC(=O)[C@H](C)NC(=O)[C@H](Cc1c[nH]c2ccccc12)NC(=O)[C@H](CCC(N)=O)NC(=O)[C@H](N)CC(N)=O)C(C)C)C(N)=O", "tgt": "A498", "val": "> 12.5 µM (inactive)"}
{"compound": "CCc1c(CNc2ccc(C(=O)NC(CC(=O)O)C(=O)O)cc2)ccc2nc(N)nc(N)c12 (configuration not stated)", "tgt": "A498", "val": "2.03 µM (inactive)"}
{"compound": "CC(C)(C)OC(=O)C(C1NC(C(=O)O)C(C)(C)S1)N1C(=O)c2ccccc2C1=O (configuration not stated)", "tgt": "A498", "val": "> 100 µM (inactive)"}
{"compound": "O=C(O)C1C2CCC(O2)C1C(=O)Nc1cccc2cccnc12 (configuration not stated)", "tgt": "A498", "val": "> 100 µM (inactive)"}

Please look at the following compound next.
Query: Which value of GI50 has been reported for COC(=O)C(=O)C(C(=O)C(=O)Nc1cccc(C(C)=O)c1)c1nc2ccc([N+](=O)[O-])cc2nc1O (configuration not stated) in the records?
Reply: > 100 µM (inactive)

----------
# Tested on: HL-60
# assayNotes: NCI tumour cell line growth inhibition, 48 h
The source made the active and inactive calls. No stated cut-off is given here; in the data, active = GI50 up to about 1.1 µM and inactive = higher.
readoutKind: GI50

Sample records with GI50:
{"compound": "COc1ccc(Nc2nnc(-c3nsc4ccccc34)s2)cc1", "readoutKind": "GI50", "val": "> 70.1 µM (inactive)"}
{"compound": "Clc1ccc(-c2cn3c(nc4ccccc43)c(-c3ccccc3)n2)cc1", "readoutKind": "GI50", "val": "> 100 µM (inactive)"}
{"compound": "CCOC(=O)C1=C(NC(C)(C)C)OC/C1=N\\NC(=O)Cc1ccccc1", "readoutKind": "GI50", "val": "> 100 µM (inactive)"}
{"compound": "Cc1cc(S(=O)(=O)NC2=NCc3nc4ccccc4n32)c(S)cc1Cl", "readoutKind": "GI50", "val": "24.2 µM (inactive)"}
{"compound": "Cc1ccc(S(=O)(=O)C2c3nc4ccccc4cc3-c3nc4ccccc4nc32)cc1 (stereo not given)", "readoutKind": "GI50", "val": "> 100 µM (inactive)"}

Consider the record given below.
Query: Quick check: GI50 of Cc1ccc(S(=O)(=O)NCCCSCCN)cc1 ?
Reply: > 100 µM (inactive)

----------
# Tested on: DMS-273
# assayNotes: NCI tumour cell line growth inhibition, 48 h
The source made the active and inactive calls. No stated cut-off is given here; in the data, active = GI50 up to about 1.1 µM and inactive = higher.
Outcome field: choose from active, inactive

{"compound": "O=C(O)c1c[nH]c2c(ccc3ncccc32)c1=O", "className": "inactive"}
{"compound": "COc1ccc2nc3ccccc3c(NCCCCN(C)CCCl)c2c1", "className": "active"}
{"compound": "CN1CCn2c(Br)ccc2C1=O", "className": "inactive"}
{"compound": "O=C(Cc1nc2ccccc2c(=O)n1-c1ccccc1Cl)c1ccncc1", "className": "inactive"}
{"compound": "COc1ccc2[nH]cc(CCNC(C)=O)c2c1", "className": "inactive"}

Query: Entry CC(=O)OC1CC2C(C)(C)C(=O)C=C[C@]2(C)C2CCC3(C)C(c4ccoc4)C(=O)C4OC43[C@]12C (stereo not given in full) : call = ?
Reply: inactive

Query: Another compound: CC(=O)OCC1OC(OC2C(CSC3OC(COC(C)=O)C(OC(C)=O)C(OC(C)=O)C3OC(C)=O)OC(OC(C)=O)C(OC(C)=O)C2OC(C)=O)C(OC(C)=O)C(OC(C)=O)C1OC(C)=O (stereo not given)
Reply: inactive

Query: Try this compound too: COc1cc(C2(C)SCCCS2)c(I)c(OC)c1OC
Reply: inactive

Query: And the next one, O=C1CCCCCCCCCCOC(=O)CCCCCCCCCCO1 ?
Reply: inactive

Query: Next: CC(=O)O[C@H]1CC[C@@]2(C)C(=CC[C@@H]3C2CC[C@]2(C)Nc4oncc4CC32)C1 (stereo not given in full)
Reply: inactive

----------
# Tested on: TK-10
# assayNotes: NCI tumour cell line growth inhibition, 48 h
Calls of active or inactive are those of the source. Rule as the data show it: active = GI50 up to about 1.1 µM and inactive = higher.
Pick from active, inactive when you respond.

These solved cases illustrate the format of a correct answer.
{"compound": "CN(Cc1cnc2nc(N)nc(N)c2n1)c1ccc(C(=O)NCCCS(=O)(=O)O)cc1", "className": "inactive"}
{"compound": "Cc1nc(N)sc1C(=O)/C=C/c1ccc(/C=C/C(=O)c2sc(NC(=O)CCCCCCCCC(=O)Nc3nc(C)c(C(=O)/C=C/c4ccc(/C=C/C(=O)c5sc(N)nc5C)cc4)s3)nc2C)cc1", "className": "inactive"}
{"compound": "COc1cccc(/C=C/c2ccc(S(N)(=O)=O)cc2)c1", "className": "inactive"}
{"compound": "CC(C)CC1c2[nH]c3ccccc3c2C[C@H]2C(=O)NC(CCC(=O)OC(C)(C)C)C(=O)N12 (stereo partly drawn)", "className": "inactive"}
{"compound": "COC12OC3(C4OC41)C(C(=O)O[C@H]3CO[Si](C)(C)C(C)(C)C)C2C(=O)Oc1ccccc1 (stereo partly drawn)", "className": "inactive"}

Query: Please share the test call associated with CC[C@@]1(O)C(=O)OCc2c1cc1n(c2=O)Cc2c-1nc1ccc(O)cc1c2CC[Si](C)(C)C .
Reply: active

Query: How about this compound: Cc1cc(NS(=O)(=O)c2ccc(NC(=O)c3ccc(Cl)c4c(Nc5ccc(S(=O)(=O)N=C(N)N)cc5)c5ccccc5nc34)cc2)no1
Reply: inactive

Query: How about COc1ccc2nc3ccccc3c(NCCCCN(C)CCCl)c2c1 ?
Reply: active

These entries and their values trace back to ChEMBL document CHEMBL1201862.
